Please provide measured CYP2C9 Efficacy (in parenthesis) for the entries that follow.
- assayed target: UniProt:P11712
- recorded conditions: human

query: Query: CYP2C9 Efficacy (in parenthesis); subject: CCCC(Cn1cncn1)c1ccc(Cl)cc1Cl (centres unmarked)
result: 5.66 ± 0.65 (-101 ± 4) %

query: Same again, this time with CCC(C)n1ncn(-c2ccc(N3CCN(c4ccc(OCC5COC(Cn6cncn6)(c6ccc(Cl)cc6Cl)O5)cc4)CC3)cc2)c1=O (centres unmarked)
result: 14.05 ± 3.21 (-81 ± 13) %

query: Now the same for CC(N/C(=N\C#N)Nc1ccncc1)C(C)(C)C (centres unmarked) [Pinacidil monohydrate]
result: 13.86 ± 1.59 (-102 ± 3) %

query: Then this compound: O=S(=O)(c1ccc(Cl)cc1)c1ccc(Cl)cc1
result: 31.35 ± 2.66 (-52 ± 4) %

query: Can you check O=C1c2ccccc2Cc2ccccc21 next?
result: 12.58 ± 3.51 (-54 ± 8) %

query: Now consider Clc1ccccc1-c1nc(-c2ccncc2)no1 [Pifexole] .
result: 6.98 ± 3.95 (-79 ± 12) %

query: Input CCCCC(C#N)(Cn1cncn1)c1ccc(Cl)cc1 (centres unmarked)
result: 25.18 ± 0 (-109 ± 4) %

query: Queued: Clc1ccc(CCC(Cn2ccnc2)Sc2c(Cl)cccc2Cl)cc1 (centres unmarked) [Butoconazole nitrate]
result: 0.1 ± 0.02 (-98 ± 4) %

query: Repeat for the following compound: Oc1ccc2ccc3cccc4ccc1c2c34 [1-Hydroxypyrene]
result: 35.57 ± 0 (-80 ± 9) %

query: Okay, and Clc1ccc(C(c2ccc(Cl)cc2)C(Cl)(Cl)Cl)cc1 ?
result: 4.33 ± 1.82 (-100 ± 9) %

query: For OC(c1ccc(Cl)cc1)(c1ccc(Cl)cc1)C(Cl)(Cl)Cl then?
result: 4.89 ± 4.11 (-104 ± 9) %

query: Field entry: CCOP(=S)(OCC)Oc1ccc2c(C)c(Cl)c(=O)oc2c1
result: 0.28 ± 0.02 (-103 ± 5) %

query: Follow-up item: CN(C)C(=O)Nc1ccc(Cl)c(Cl)c1
result: 69.41 ± 26.11 (-48 ± 19) %

query: Record: Clc1ccc(C(Cn2ccnc2)OCc2ccc(Sc3ccccc3)cc2)c(Cl)c1 (centres unmarked) [Fenticonazole nitrate]
result: 2.99 ± 0.41 (-103 ± 6) %

query: Check ClC(Cl)=C(c1ccc(Cl)cc1)c1ccc(Cl)cc1 too.
result: 12.86 ± 6.41 (-84 ± 11) %

query: Try the compound CC1(C)CCC(Cc2ccc(Cl)cc2)C1(O)Cn1cncn1 (centres unmarked)
result: 0.23 ± 0.11 (-96 ± 19) %

query: Input Brc1c2ccccc2cc2ccccc12
result: 34.62 ± 2.26 (-73 ± 9) %

query: Would you kindly repeat that for Brc1cc2ccccc2c2ccccc12 ?
result: 56.84 ± 0 (-53 ± 6) %

query: Can you check CCOP(=S)(OCC)Oc1ccc(Cl)cc1Cl next?
result: 3.56 ± 0 (-100 ± 3) %

query: Another: COP(=S)(OC)SCn1nnc2ccccc2c1=O
result: 3.88 ± 0.66 (-99 ± 12) %

###

- assayed target: human CYP2C9 (Homo sapiens, UniProt P11712)
- Sequence (P11712 whole entry): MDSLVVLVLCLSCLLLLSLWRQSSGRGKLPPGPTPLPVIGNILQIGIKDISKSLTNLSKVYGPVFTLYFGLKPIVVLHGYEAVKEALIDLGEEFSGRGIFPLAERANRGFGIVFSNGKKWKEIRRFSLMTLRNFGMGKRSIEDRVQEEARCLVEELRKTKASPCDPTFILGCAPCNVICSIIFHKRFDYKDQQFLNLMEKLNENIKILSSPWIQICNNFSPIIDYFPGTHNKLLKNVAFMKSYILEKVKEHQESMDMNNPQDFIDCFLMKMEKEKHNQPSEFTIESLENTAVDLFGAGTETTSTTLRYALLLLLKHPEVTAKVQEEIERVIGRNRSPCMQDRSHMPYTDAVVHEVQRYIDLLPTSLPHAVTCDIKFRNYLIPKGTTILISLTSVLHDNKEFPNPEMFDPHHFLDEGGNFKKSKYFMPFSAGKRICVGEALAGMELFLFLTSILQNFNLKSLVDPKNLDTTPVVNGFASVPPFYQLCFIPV
pIC50: −log10 of the molar value.
pIC50 of 6 or higher: satisfied. Under 6: not satisfied.

query: State whether the measured pIC50 reaches 6, counting equality as reaching it, for COP(=S)(NC(C)C)Oc1ccc(C)cc1[N+](=O)[O-] (stereo not drawn) [Amiprofos-methyl]
result: not satisfied

query: Again, but for CCCC[N+](C)(CCCC)CCCC.O=S(=O)([N-]S(=O)(=O)C(F)(F)F)C(F)(F)F
result: not satisfied

query: Also check CCOP(=O)([O-])OCC.CCn1cc[n+](C)c1
result: not satisfied

query: Same lookup for Cc1cc(CCC(=O)OCCOCCOCCOC(=O)CCc2cc(C)c(O)c(C(C)(C)C)c2)cc(C(C)(C)C)c1O , please.
result: satisfied

query: Likewise for CCCCCCCC[P+](CCCCCCCC)(CCCCCCCC)CCCCCCCC.[Br-] [Tetraoctylphosphonium bromide] ?
result: not satisfied

query: C[C@H]1CCC[C@H](O)CCCCCc2cc(O)cc(O)c2C(=O)O1 [Zearalanol] , same question.
result: not satisfied

query: Another compound to check: CCCCCCCC[N+](CCCCCCCC)(CCCCCCCC)CCCCCCCC.[Br-] [Tetra-N-octylammonium bromide]
result: not satisfied

query: Next record, please: CC(=O)[O-].CC(=O)[O-].[Hg+2] [Mercury(II) acetate]
result: satisfied

query: Do the same for COc1ccc(OC)c(N=Nc2c(O)ccc3ccccc23)c1 [C.I. Solvent Red 80] please
result: not satisfied

query: // next record COc1cc(-c2ccc(N)c(OC)c2)ccc1N.Cl.Cl [3,3'-Dimethoxybenzidine dihydrochloride]
result: not satisfied

query: Subsequent entry: N#Cc1c(-c2ccc(Cl)cc2)[nH]c(C(F)(F)F)c1Br [Tralopyril]
result: not satisfied

query: Repeat for the following compound: CCOC(CN1CCN(CC(C)C(=O)c2ccccc2)CC1)c1ccccc1.Cl.Cl (stereo not drawn) [Eprazinone dihydrochloride]
result: not satisfied

query: Entry to check: OC(c1ccc(Cl)cc1)(c1ccc(Cl)cc1)c1cccnc1 [Parinol]
result: satisfied

query: Check O=S(=O)([O-])C(F)(F)C(F)(F)C(F)(F)C(F)(F)C(F)(F)C(F)(F)C(F)(F)C(F)(F)F.[Li+] [Lithium perfluorooctane sulfonate] too.
result: satisfied

query: Subsequent entry: CCCCCCCC[N+](C)(CCCCCCCC)CCCCCCCC.O=S(=O)([O-])C(F)(F)F
result: not satisfied

###

Record set of CYP3A4 Efficacy (in parenthesis) for target or system CYP3A4 (Homo sapiens).

query: Any idea what its CYP3A4 Efficacy (in parenthesis) is? The molecule is CCC1COC(Cn2cncn2)(c2ccc(Cl)cc2Cl)O1 (centres unmarked) [Etaconazole]
result: 0.1 ± 0.01 (-79 ± 1) %

query: // next record C=CC(=O)OCC(CO)(COCC(COC(=O)C=C)(COC(=O)C=C)COC(=O)C=C)COC(=O)C=C [Dipentaerythritol pentaacrylate]
result: 0.43 ± 0.03 (-94 ± 4) %

query: Do the same for O=S(=O)(Oc1ccc(Cl)cc1)c1ccccc1 [Fenson] please
result: 6.61 ± 0.84 (131 ± 4) %

query: Now consider O=C(NCc1cccnc1)Nc1ccc([N+](=O)[O-])cc1 [Pyrinuron] and answer again.
result: 0.93 ± 0.12 (-76 ± 5) %

query: Record: Clc1ccccc1C(c1ccccc1)(c1ccccc1)n1ccnc1 [Clotrimazole]
result: 0.02 ± 0.01 (-96 ± 6) %

###

- assayed target: UniProt P05177
- assay remarks: biochemical
- recorded conditions: CYP1A2 IC50 (half-maximal inhibitory concentration)
Structures can show the parent of a compound that is named as a salt.
Checkbox rule: IC50 lower than 5 µM = met; IC50 not lower than 5 µM = not met.

query: Dear reviewer, please state whether Clc1ccc(C(Cn2ccnc2)OCc2ccsc2Cl)c(Cl)c1 (centres unmarked) has IC50 strictly beneath 5 µM.
result: met

query: Now try CN(C)CCN(Cc1ccccc1)c1ccccn1 [Tripelennamine citrate] .
result: not met

query: Try this compound too: COc1ccc2cc3[n+](cc2c1OC)CCc1cc2c(cc1-3)OCO2 [Berberine chloride]
result: not met

query: How about COC(=O)N(OC)c1ccccc1COc1ccn(-c2ccc(Cl)cc2)n1 ?
result: met

query: Next record, please: CC(Cc1cccc(C(F)(F)F)c1)NCCOC(=O)c1ccccc1 (centres unmarked) [Benfluorex hydrochloride]
result: met

###

- assayed target: human CYP2C19 (Homo sapiens)
- Sequence (P33261 whole entry): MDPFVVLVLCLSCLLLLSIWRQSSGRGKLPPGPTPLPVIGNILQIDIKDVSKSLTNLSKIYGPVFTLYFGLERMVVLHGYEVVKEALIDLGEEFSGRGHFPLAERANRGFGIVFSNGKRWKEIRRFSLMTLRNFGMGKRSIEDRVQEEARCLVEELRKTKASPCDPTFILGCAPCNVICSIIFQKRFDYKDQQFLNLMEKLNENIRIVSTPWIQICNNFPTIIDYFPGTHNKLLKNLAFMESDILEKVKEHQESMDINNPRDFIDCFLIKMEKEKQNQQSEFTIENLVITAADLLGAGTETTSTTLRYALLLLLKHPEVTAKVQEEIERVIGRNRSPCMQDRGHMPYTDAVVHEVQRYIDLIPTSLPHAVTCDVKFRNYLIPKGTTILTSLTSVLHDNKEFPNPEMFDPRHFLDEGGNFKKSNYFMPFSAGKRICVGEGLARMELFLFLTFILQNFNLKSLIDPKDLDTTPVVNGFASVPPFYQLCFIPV
- assay remarks: biochemical
- recorded conditions: CYP2C19 AC50 (half-maximal activity concentration)
endpoint name: log10 of AC50 (log10 of the value in µM)
The figures below represent log10 of AC50, where AC50 is stated in µM.

query: Give its log10 of AC50 value. Item: O=S(=O)(c1ccc(O)cc1)c1ccc(O)cc1 [4,4'-Sulfonyldiphenol]
result: 1.21

query: Then what about the molecule CCOC(=O)C(O)(c1ccc(Cl)cc1)c1ccc(Cl)cc1 [Chlorobenzilate] ?
result: -0.41

query: Moving on to the next molecule: CCCOC(=O)c1ccccc1C(=O)OCCC [Dipropyl phthalate]
result: 0.85

query: Same thing, different molecule: Brc1ccc(Oc2ccc(Br)cc2Br)c(Br)c1 [2,2'4,4'-Tetrabromodiphenyl ether]
result: -0.26

query: Next molecule up: CN1CCC(=C2c3ccccc3CCc3sccc32)CC1 [Pizotifen]
result: 0.94

###

What IC50 was measured for each of the following?
- assayed target: human CYP1A2 (Homo sapiens)
- Sequence (P05177 1-516): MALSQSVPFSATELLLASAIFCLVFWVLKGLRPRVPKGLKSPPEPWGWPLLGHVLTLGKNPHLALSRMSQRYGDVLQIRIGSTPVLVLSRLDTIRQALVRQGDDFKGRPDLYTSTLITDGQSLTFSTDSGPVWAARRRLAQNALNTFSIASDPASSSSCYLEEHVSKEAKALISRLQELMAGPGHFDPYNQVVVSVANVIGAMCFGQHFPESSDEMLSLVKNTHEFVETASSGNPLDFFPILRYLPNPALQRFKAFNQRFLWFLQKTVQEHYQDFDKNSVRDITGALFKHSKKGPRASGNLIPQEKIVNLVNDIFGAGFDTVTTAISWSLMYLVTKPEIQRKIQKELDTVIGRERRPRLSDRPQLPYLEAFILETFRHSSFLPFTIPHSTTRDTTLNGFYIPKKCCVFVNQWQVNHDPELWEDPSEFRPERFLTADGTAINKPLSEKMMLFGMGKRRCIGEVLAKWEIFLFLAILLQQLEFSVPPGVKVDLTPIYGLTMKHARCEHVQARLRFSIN
Quick note: give the figure in µM, leave out the unit.

query: Please give the measured IC50 for this compound: CC[C@H]1C[C@@H]2C[C@H]3c4[nH]c5ccc(OC)cc5c4CCN(C2)[C@@H]13.Cl [Ibogaine hydrochloride]
result: 61.5

query: Param item: CC(C)(C)c1cc(CCC(=O)NN)cc(C(C)(C)C)c1O
result: 6.97

query: Then what about the compound CO/C=C(/C(=O)OC)c1ccccc1COc1cccc(C(F)(F)F)n1 [Picoxystrobin] ?
result: 32.1

query: Next compound up: CC(=O)[O][Sn]([c]1ccccc1)([c]1ccccc1)[c]1ccccc1 [Triphenyltin acetate]
result: 47.5

query: Thanks! And CCOc1cc(OCC)c(C(C)=O)cc1OCC [2,4,5-Triethoxyacetophenone] ?
result: 0.87

query: Follow-up item: Cl.Clc1ccc(C(OCCN2CCCCC2)c2ccccc2)cc1 (centres unmarked) [Cloperastine hydrochloride]
result: 22.5

query: Now the same for CCCCCCCC[N+](CCCCCCCC)(CCCCCCCC)CCCCCCCC.[Br-] [Tetra-N-octylammonium bromide]
result: 73.8

query: Moving on to N#Cc1cc2ccccc2c2ccccc12 [9-Cyanophenanthrene]
result: 0.06
